Some molecules, each annotated with its measured pEC50.
Biological target: GCase (Homo sapiens)
Construct: endogenous in cells
Sequence (P04062 40-536): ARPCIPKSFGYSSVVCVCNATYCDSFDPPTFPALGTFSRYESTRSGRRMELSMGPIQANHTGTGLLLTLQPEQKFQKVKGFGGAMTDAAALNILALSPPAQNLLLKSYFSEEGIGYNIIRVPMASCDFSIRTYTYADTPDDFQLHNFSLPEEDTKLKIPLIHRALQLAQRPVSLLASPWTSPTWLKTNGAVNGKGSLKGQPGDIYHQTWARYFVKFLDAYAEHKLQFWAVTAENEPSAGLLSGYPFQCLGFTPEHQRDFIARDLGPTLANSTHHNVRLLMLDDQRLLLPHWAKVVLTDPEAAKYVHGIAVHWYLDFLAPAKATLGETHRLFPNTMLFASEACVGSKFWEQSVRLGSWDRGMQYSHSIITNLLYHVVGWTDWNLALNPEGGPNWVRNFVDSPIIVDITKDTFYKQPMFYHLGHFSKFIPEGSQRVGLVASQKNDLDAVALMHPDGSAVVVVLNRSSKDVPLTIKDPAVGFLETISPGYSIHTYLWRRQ
Assay: live cell PFB assay in HELA cells for activation of GCase
pEC50: −log10 of the molar value.

Solved cases below.
Would you mind telling me what pEC50 value was observed for O=C1[C@@H]2CN(c3cccc(C(F)(F)F)n3)C[C@@H]2CN1c1cnc2cnn(CC(F)F)c2n1 (racemic) ?
4.30 to 5.00

Would you mind telling me what pEC50 value was observed for FC(F)Cn1ncc2ncc(N3CC[C@@H]4CN(c5ccncc5C(F)(F)F)C[C@@H]4C3)nc21 (racemic) ?
< 4.00

Would you mind telling me what pEC50 value was observed for FC(F)Cn1ncc2ncc(N3CC[C@H]4[C@@H]3CCN4c3cc(C(F)(F)F)ccn3)nc21 (racemic) ?
> 5.00

Would you mind telling me what pEC50 value was observed for FC(F)Cn1ncc2ncc(N[C@H]3CC[C@@H]4CN(c5cccc(C(F)(F)F)n5)C[C@@H]4C3)nc21 (single isomer, unassigned) ?
> 5.00

Would you mind telling me what pEC50 value was observed for FC(F)Cn1ncc2ncc(N3C[C@@H]4CN(c5ccc(C(F)(F)F)nc5)C[C@H]4C3)nc21 (racemic) ?
4.30 to 5.00

Moving on to the next molecule.
Would you mind telling me what pEC50 value was observed for `CN(c1cnc2cnn(CC(F)F)c2n1)[C@H]1C[C@@H]2CN(c3cncc(C(F)(F)F)c3)C[C@@H]2C1` ?
4.30 to 5.00
